assay: Solubility in water at room temperature
outcome measure: solubility

Lookup result for CC1(C)C[C@@H]1C(=O)Nc1ccc(Oc2ccc(NC(=O)[C@H]3CC3(C)C)cn2)cc1 ; measured solubility: ~1.6 µg/mL

Lookup result for Cl.NS(=O)(=O)c1ccc(/C=C/CN2CCC(=C3c4ccccc4C=Cc4ccccc43)CC2)cc1 ; measured solubility: ~30 µg/mL

Provenance of the data: patent US20060140991A1
